Item-by-item account of % Annexin V/PI-positive cells, T-47D, 1.0 µg/ml mAb
study-target: T1, human EpCAM (epithelial cell adhesion/activating molecule) (human, UniProt P16422 24-314)
T1 sequence: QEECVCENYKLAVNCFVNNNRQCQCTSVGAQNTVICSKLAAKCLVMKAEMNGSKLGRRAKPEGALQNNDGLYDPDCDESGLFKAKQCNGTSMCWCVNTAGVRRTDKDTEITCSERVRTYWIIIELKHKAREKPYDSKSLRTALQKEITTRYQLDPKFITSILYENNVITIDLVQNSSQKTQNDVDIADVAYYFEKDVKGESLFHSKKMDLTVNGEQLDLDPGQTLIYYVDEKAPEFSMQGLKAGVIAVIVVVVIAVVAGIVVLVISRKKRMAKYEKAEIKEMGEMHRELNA
assay-procedure: cell-based or functional assay
endpoint-name: % Annexin V/PI-positive cells, T-47D, 1.0 µg/ml mAb (%)

- binder: "murine monoclonal antibody 12H8 (antibody, mouse IgG2a, V domains shown, Mouse IgG2a, kappa, from hybridoma; also called m342-12H8.3; m12H8) VH: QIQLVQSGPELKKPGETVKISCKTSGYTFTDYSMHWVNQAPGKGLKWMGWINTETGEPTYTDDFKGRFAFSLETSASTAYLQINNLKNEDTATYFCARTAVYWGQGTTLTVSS VL: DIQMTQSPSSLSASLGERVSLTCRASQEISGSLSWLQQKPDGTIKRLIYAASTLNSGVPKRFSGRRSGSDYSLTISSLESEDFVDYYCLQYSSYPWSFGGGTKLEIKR"
  recorded-result: 49
- binder: "murine monoclonal antibody 6D11 (antibody, mouse IgG1, V domains shown, Mouse IgG1, kappa, from hybridoma; also called m338-6D11.8) VH: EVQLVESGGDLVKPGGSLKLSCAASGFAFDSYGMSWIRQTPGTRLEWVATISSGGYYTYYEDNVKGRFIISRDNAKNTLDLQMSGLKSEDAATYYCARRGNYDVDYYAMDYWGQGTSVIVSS VL: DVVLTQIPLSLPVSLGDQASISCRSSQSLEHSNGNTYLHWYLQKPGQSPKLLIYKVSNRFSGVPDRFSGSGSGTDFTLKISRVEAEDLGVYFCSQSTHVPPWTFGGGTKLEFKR"
  recorded-result: 25
- binder: "murine monoclonal antibody 2D11 (antibody, mouse IgG1, V domains shown, Mouse IgG1, kappa, from hybridoma; also called m322-2D11.19) VH: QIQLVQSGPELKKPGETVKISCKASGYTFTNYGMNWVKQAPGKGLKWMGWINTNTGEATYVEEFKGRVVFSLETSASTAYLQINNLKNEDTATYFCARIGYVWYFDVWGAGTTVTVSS VL: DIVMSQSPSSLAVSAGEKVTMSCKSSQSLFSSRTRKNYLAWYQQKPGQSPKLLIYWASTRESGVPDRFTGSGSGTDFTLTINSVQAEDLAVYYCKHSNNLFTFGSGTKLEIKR"
  recorded-result: 36
- binder: "murine monoclonal antibody 4D2 (antibody, mouse IgG1, V domains shown, Mouse IgG1, kappa, from hybridoma; also called m338-4D2.20) VH: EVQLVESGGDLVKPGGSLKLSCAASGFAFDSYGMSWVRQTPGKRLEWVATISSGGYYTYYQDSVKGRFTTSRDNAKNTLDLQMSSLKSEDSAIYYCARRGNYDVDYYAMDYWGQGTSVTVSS VL: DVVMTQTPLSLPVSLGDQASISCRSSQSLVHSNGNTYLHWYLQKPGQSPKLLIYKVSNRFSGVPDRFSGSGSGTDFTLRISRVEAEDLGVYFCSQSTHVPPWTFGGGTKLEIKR"
  recorded-result: 35
